# Assayed target: T1, human serum albumin (human, UniProt P02768 25-609)
# T1 construct: Immobilised on SPR chips; also added in solution in the FcRn occupancy assays; also called HSA; humanSA
# Experiment summary: SPR Biacore 8K+ SCK, albumin on chip, pH 7.4
Documented kon across a set of binders
Measured attribute: kon (M⁻¹ s⁻¹)

binder="Alb23 M34A (VHH, VHH alone) VHH: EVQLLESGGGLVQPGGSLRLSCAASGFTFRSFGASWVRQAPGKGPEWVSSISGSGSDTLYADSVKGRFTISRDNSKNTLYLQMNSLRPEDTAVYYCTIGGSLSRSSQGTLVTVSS" reading_unit="M⁻¹ s⁻¹" endpoint_value=1.29e+06
binder="Alb23 G33A/S101A (VHH, VHH alone) VHH: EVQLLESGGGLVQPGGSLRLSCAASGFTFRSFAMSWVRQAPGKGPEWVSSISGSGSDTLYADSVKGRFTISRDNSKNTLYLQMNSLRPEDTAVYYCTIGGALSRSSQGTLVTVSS" reading_unit="M⁻¹ s⁻¹" endpoint_value=1.15e+06
binder="Alb23 G100A (VHH, VHH alone) VHH: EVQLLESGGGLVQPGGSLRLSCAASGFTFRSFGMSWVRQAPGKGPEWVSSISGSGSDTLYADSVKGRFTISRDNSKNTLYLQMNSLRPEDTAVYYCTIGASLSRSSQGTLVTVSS" reading_unit="M⁻¹ s⁻¹" endpoint_value=758000
